- tested system: T1, MurineB7-H4 (Mus musculus, UniProt Q7TSP5)
- T1 construct: Mouse B7H4 ECD; FLAG (C); 10His (C); made in house
- T1 sequence (Q7TSP5 25-257 limits assumed): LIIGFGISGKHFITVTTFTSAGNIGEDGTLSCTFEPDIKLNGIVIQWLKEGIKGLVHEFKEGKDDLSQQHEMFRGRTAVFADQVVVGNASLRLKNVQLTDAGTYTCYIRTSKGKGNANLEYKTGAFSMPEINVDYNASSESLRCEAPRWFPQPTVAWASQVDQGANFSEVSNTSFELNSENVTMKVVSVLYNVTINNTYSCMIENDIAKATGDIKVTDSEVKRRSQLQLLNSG
- experimental protocol: ForteBio Octet affinity
- Assay type: binding, murine
- settings: hIgG1 (n = 1)
Answer each item with its documented kdis.
Give bare numbers, in s⁻¹.

molecule	unit tag	kdis
ZY0EP0-C07: anti-B7-H4 antibody clone, VH SEQ ID NO: 39, VL SEQ ID NO: 40 (antibody, V domains shown) VH: QVQLVESGGVLVKPGGSLRLSCAASGFTLSDYYMSWIRQAPGMGLEWVSYISSSGSTIYYTDSVKGRFTISRDSAKNSLYLQMNSLRAEDTAVYYCARDGVGFDYWGQGTLVTVSS VL: EIVLTQSPGTLSLFPGERATLSCRASQSVSSSYLAWYQQKPGQSPRLLIYAASSRATGIPDRFSGSGSGTDFTLTISRLEPEDFAVYYCQQYGSSPLYTFGQGTKLEIK	s⁻¹	0.000551

I need kdis for every entry listed below, if you could help.
1. ZY0EOB-F05: anti-B7-H4 antibody clone, VH SEQ ID NO: 35, VL SEQ ID NO: 36 (antibody, V domains shown) VH: QVQLQESGPGLVKPSQTLSLTCTVSDGSISSGGYYWSWIRQHPGKGLEWIGNIYYSGSTYYNPSLKSRVTISVDTSKNQFSLKLNSVTAADTAVYYCATEKALATVTPSGYENYYTVDVWGQGTTVTVSS VL: DIQLTQSPSFLSASVGDRVTITCWASQGISSYLAWYQQKPGKAPKLLIYAASTLQSGVPSRFSGSGSGTEFTLTISSLQPEDFATYYCQHLNSYPLTFGGGTKVEIK
2. ZY0E05-E07: anti-B7-H4 antibody clone, VH SEQ ID NO: 37, VL SEQ ID NO: 38 (antibody, V domains shown) VH: QVQLQESGPGLVKPSQTLSLTCTVSGGSISSGGYYWSWIRQHPGKGLEWIGNIYYSGSTYYNPSLKSRVTISVDTSKNQFSLKLSSVTAADTAVYYCAREKALASVIPSGYENYYVVDVWGQGTTVTVSS VL: DIQLTQSPSFLSASVGGRVTITCWASQGIAGYLAWYQQKPGKAPKLLIYAASTLQSGVPSRFSGSGSGTEFTLTISSLQPEDFATYYCQHLNSYPLTFGGGTKVEIK

Return:
[0.000493, 0.000415]
